system: NCI-H23 lung; experiment: NCI tumour cell line growth inhibition, 48 h
measured_parameter: TGI

compound	reported_measurement
Clc1ccc(-c2c(C3=NCCN3)nnn2-c2ccc(Cl)cc2)cc1	> 100 µM
CCOC(=O)C1=C(C)N(N)C(=S)NC1c1ccc(C)cc1 (stereo not given)	> 100 µM
O=C(O)c1ccc(NNc2cc(=O)[nH]c(=O)[nH]2)cc1	> 100 µM
CCN1c2nc3ccccc3nc2N(CC)c2nc3ccccc3nc21	> 100 µM
O=c1c(-c2ccccc2)c(SCCCN2CCN(c3cccc(Cl)c3)CC2)n(-c2ccccc2)c(=S)n1-c1ccccc1	> 100 µM
CC(=O)O[C@@H]1C[C@]2(C(C)C)O[C@@]1(C)[C@@H]1CCC(C)=C1[C@@H]2OC(=O)/C=C/c1ccccc1	> 100 µM
CC(=O)Oc1ccccc1C(=O)N=C1[Se]CCCN1C(=O)c1ccccc1OC(C)=O	7.78 µM
O=C1NC(=O)C(CCO)(c2ccccc2)C(=O)N1	> 100 µM

Query block: Tell me the measured TGI of O=C(O)c1c(-c2nccc3ccccc23)[nH]c(-c2ccccc2)c1S(=O)(=O)O , please.
Result block: > 100 µM

Query block: Please answer likewise for Cc1sc2nc(NCCc3c[nH]c4ccc(Cl)cc34)[nH]c(=O)c2c1C
Result block: 6.22 µM

Query block: Lookup COC(=O)C(=C/c1ccc(OC)cc1)/C(C(=O)O)=C(/C)c1ccccc1
Result block: > 100 µM

Query block: // same read-out, input: N#C/C(=C\c1ccc(O)c(O)c1)C(N)=O
Result block: 93.8 µM
